Test system: Candida albicans
Assay: Antimicrobial activity against Candida albicans ATCC 10231 assessed as inhibition zone after 24 hrs by agar well diffusion method
Assay type: functional
QUANTITY MEASURED: diameter of the inhibition zone (DIZ) (mm)
Hi! Could you send only the number? It should be in mm, unit omitted.

compound="CC1(C)S[C@@H]2[C@H](NC(=O)[C@H](N)c3ccccc3)C(=O)N2[C@H]1C(=O)O [AMPICILLIN]" assay_system="Candida albicans" result_value=14
compound=CCOC(=O)c1c(N)sc(/N=C/c2ccc(N(C)C)cc2)c1C(=O)OCC assay_system="Candida albicans" result_value=8

Please look at the following compound next.
Short answer please: diameter of the inhibition zone (DIZ), Candida albicans, entry `CCOC(=O)c1c(N)sc(/N=C/c2ccc(F)cc2)c1C(=O)OCC`
8

* * *

Molecular target: UniProtKB P18031
Assay: Inhibition of PTP-1B (unknown origin) using pNPP substrate measured after 30 mins
Details: read-out: IC50
QUANTITY MEASURED: pIC50
Keep it numeric: pIC50 is minus log10 of the concentration in mol/L.

Tell me the measured pIC50 of `CCOC(=O)c1c(N)sc(/N=C/c2ccc([N+](=O)[O-])cc2)c1C(=O)OCC` , please.
5.19

* * *

# maps each entry to its IC50
System: HeLa
Assay: Anticancer activity against human HeLa cells assessed as inhibition of tumor cell proliferation after 48 hrs by MTT assay
Format: functional, cell-based
Note to self: number, then unit, no commentary.

For orientation, consider the following solved cases.
compound=CCOC(=O)c1c(N)sc(/N=C/c2ccc([N+](=O)[O-])cc2)c1C(=O)OCC quantity_measured=IC50 result_value="14.1 µM"
compound=CCOC(=O)c1c(N)sc(/N=C/c2cccs2)c1C(=O)OCC quantity_measured=IC50 result_value="21.3 µM"

Tell me the measured IC50 of `CCOC(=O)c1c(N)sc(/N=C/c2ccccc2)c1C(=O)OCC` , please.
31.2 µM

Tell me the measured IC50 of `CCOC(=O)c1c(N)sc(/N=C/c2ccc(Cl)cc2)c1C(=O)OCC` , please.
25.2 µM

Tell me the measured IC50 of `CCOC(=O)c1c(N)sc(/N=C/c2ccc(OC)cc2)c1C(=O)OCC` , please.
189 µM

Tell me the measured IC50 of `CCOC(=O)c1c(N)sc(/N=C/c2ccco2)c1C(=O)OCC` , please.
46.7 µM

Tell me the measured IC50 of `CCOC(=O)c1c(N)sc(/N=C/c2ccc([N+](=O)[O-])o2)c1C(=O)OCC` , please.
4.7 µM

Tell me the measured IC50 of COc1cccc2c1C(=O)c1c(O)c3c(c(O)c1C2=O)C[C@@](O)(C(=O)CO)C[C@@H]3O[C@H]1C[C@H](N)[C@H](O)[C@H](C)O1 [DOXORUBICIN] , please.
7.04 µM

* * *

Molecular target: Tyrosine-protein phosphatase non-receptor type 1 (Homo sapiens, UniProt P18031)
Sequence (P18031 whole entry): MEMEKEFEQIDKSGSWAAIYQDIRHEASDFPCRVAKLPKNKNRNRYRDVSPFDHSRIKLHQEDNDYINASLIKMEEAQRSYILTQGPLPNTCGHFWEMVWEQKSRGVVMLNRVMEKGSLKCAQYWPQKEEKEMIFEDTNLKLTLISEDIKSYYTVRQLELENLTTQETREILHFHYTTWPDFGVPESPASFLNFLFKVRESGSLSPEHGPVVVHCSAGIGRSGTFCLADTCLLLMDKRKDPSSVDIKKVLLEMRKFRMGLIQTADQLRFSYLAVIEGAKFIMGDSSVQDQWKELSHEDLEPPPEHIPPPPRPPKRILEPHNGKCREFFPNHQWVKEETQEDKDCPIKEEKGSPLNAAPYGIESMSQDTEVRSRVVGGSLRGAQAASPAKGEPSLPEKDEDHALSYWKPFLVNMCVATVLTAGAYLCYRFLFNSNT
Assay: Inhibition of PTP-1B (unknown origin) using pNPP substrate measured after 30 mins
Details: read-out: IC50
QUANTITY MEASURED: pIC50
Keep it numeric: pIC50 is minus log10 of the concentration in mol/L.

For orientation, consider the following solved cases.
entry_smiles=CCOC(=O)c1c(N)sc(/N=C/c2ccc(N(C)C)cc2)c1C(=O)OCC result_value=5.14
entry_smiles=CCOC(=O)c1c(N)sc(/N=C/c2ccc(Br)cc2)c1C(=O)OCC result_value=5.18
entry_smiles=CCOC(=O)c1c(N)sc(/N=C/c2ccc([N+](=O)[O-])o2)c1C(=O)OCC result_value=5.15

Tell me the measured pIC50 of `CCOC(=O)c1c(N)sc(/N=C/c2cccs2)c1C(=O)OCC` , please.
4.83
